Target: HGK/MAP4K4 (Homo sapiens, UniProt O95819)
Sequence (O95819 whole entry): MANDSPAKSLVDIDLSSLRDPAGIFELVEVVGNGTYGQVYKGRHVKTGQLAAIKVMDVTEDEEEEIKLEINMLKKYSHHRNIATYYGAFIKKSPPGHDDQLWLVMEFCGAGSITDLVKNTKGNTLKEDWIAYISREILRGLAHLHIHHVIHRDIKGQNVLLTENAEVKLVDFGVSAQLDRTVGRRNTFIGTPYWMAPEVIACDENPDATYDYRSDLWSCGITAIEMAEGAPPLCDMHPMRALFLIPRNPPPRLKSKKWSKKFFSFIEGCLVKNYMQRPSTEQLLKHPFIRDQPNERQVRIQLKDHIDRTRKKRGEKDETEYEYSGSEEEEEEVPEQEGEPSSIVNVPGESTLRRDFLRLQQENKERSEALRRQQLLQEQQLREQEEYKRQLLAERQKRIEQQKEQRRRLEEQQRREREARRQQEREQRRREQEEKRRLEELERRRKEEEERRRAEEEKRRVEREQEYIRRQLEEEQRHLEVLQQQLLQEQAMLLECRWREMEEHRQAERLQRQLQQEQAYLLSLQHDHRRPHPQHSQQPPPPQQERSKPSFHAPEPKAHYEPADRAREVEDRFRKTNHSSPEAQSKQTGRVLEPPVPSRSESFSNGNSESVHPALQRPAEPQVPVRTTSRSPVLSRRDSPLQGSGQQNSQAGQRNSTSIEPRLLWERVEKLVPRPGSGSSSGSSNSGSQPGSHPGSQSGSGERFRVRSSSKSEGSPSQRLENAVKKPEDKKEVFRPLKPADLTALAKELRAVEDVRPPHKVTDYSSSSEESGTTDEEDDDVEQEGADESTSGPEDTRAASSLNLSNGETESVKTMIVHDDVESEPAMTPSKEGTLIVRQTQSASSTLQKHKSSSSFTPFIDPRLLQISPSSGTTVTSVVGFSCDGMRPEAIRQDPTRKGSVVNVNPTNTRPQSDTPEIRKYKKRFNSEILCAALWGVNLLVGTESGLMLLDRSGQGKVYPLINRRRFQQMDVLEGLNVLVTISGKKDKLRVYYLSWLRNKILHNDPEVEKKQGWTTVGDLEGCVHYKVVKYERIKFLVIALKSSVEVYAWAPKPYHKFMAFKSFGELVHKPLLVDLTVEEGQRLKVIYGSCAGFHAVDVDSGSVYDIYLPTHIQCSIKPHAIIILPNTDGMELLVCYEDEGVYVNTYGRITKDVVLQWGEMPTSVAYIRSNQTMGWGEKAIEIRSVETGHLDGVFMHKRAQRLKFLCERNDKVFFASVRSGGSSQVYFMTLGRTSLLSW
Assay: Radiolabeled ATP kinase assay (Reaction Biology Corp.), HGK
Type: biochemical
Set-up: purchased Reaction Biology Corp
Settings: [Cmpd] 0.025 μM; 10 μM ATP; read-out: % Enzyme Activity (relative to DMSO controls), HGK/MAP4K4, Data 1
recorded endpoint: remaining activity at 0.025 µM (%)
The figure you give is taken to be in %; do not add the unit.

Field: example entries. Status: answers known.
- cpd smiles: "COc1ccc(-c2c[nH]c3ncc(-c4ccc(CN5CCN(C)CC5)cc4)cc23)cc1C"
  units symbol: "%"
  readout number: 57.3
- cpd smiles: "CN1CCN(Cc2ccc(-c3cnc4[nH]cc(-c5ccc(F)c(C(=O)NCc6ccco6)c5)c4c3)cc2)CC1"
  units symbol: "%"
  readout number: 88.8
- cpd smiles: "CN1CCN(Cc2ccc(-c3cnc4[nH]cc(-c5cccc(F)c5)c4c3)cc2)CC1"
  units symbol: "%"
  readout number: 7.85

Query block: Sample "CN1CCN(Cc2ccc(-c3cnc4[nH]cc(-c5cccc(NC(=O)NCc6ccco6)c5)c4c3)cc2)CC1" — what was its remaining activity at 0.025 µM?
Result block: 93.8

Where do the numbers come from? From patent US12227500B2.
